- method_summary: Rat Hepatocyte Stability (Test E)
- Type: in vitro ADME
- particulars: rat, hepatocytes, geometric mean if run multiple times
recorded_endpoint: hepatocyte CLint (µL/min/1e6 cells)

COc1cc(F)c(-c2ccc(C(=O)O)cc2)cc1C(=O)N[C@H]1[C@@H]2CC[C@@H](C2)[C@H]1C(=O)Nc1ccc(F)c(C(F)(F)F)c1 (single isomer, unassigned) ... 28

1 = COc1cc(F)c(-c2ccc(C(=O)O)c(F)c2)cc1C(=O)N[C@@H]1[C@H]2CC[C@H](C2)[C@@H]1C(=O)Nc1cccc(S(=O)(=O)C(F)(F)F)c1
2 = COc1cc(F)c(O[C@H]2CC[C@@H](C(=O)O)CC2)cc1C(=O)N[C@@H]1[C@H]2CC[C@H](C2)[C@@H]1C(=O)Nc1ccc(F)c(C(F)(F)F)c1
Task item: # min-compare on hepatocyte CLint between 1 and 2 Refer to your chosen item by its label in the answer.
Reply: 1

---

- method_summary: Solubility (Test F)
- Assay type: physicochemical
- particulars: arithmetic mean if run multiple times
recorded_endpoint: solubility (µM)

COc1cc(F)c(O[C@H]2CC[C@@H](C(=O)O)CC2)cc1C(=O)N[C@@H]1[C@H]2CC[C@H](C2)[C@@H]1C(=O)Nc1cc(C(F)(F)F)cc(C(F)(F)F)c1 ... 51

P = COc1cc(F)c(-c2ccc(CCC(=O)O)cc2)cc1C(=O)N[C@H]1[C@@H](C(=O)Nc2cccc(S(=O)(=O)C(F)(F)F)c2)[C@@H]2C=C[C@H]1C2 (racemic)
Q = COc1cc(F)c(-c2cccc(CCC(=O)O)c2)cc1C(=O)N[C@@H]1CCC[C@@H]1C(=O)Nc1cccc(S(=O)(=O)C(F)(F)F)c1
Task item: Parameter metric = solubility. Return the lower-valued option from P and Q . // caller expects the label of the chosen entry
Reply: P

---

- measured_target: human RXFP1 (Homo sapiens, UniProt Q9HBX9)
- Sequence (Q9HBX9 whole entry): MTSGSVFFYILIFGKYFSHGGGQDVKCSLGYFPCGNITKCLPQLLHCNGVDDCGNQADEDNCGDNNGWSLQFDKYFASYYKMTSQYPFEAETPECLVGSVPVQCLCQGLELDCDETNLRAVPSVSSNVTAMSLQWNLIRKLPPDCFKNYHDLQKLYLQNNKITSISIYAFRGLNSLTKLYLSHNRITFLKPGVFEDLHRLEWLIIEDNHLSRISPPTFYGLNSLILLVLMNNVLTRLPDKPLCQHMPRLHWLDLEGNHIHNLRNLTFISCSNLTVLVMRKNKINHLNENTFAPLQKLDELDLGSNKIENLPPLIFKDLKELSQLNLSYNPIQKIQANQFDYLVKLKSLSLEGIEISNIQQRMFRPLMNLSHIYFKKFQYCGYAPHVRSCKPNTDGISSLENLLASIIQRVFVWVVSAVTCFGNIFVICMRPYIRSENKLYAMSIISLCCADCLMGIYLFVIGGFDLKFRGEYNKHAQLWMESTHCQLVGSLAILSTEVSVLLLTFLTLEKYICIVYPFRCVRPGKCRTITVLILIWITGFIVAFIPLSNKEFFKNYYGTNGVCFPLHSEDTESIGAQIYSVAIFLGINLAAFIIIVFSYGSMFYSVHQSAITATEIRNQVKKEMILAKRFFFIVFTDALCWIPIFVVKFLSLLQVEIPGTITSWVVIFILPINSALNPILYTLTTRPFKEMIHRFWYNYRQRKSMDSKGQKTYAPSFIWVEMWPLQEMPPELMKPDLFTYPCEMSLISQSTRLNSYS
- method_summary: RXFP1 Hu cAMP (Test A)
- Assay type: cell-based
- Parameters: expressed in transfected cells; host or cells: Jump-In T-REx CHO-K1 cells (ThermoFisher), induced with 10 ng/ml doxycycline for 24 h
- particulars: RXFP1 Hu cAMP; read-out: Test A EC50
recorded_endpoint: EC50 (nM)

COc1cc(C#N)c(O[C@H]2CC[C@@](C)(C(=O)O)CC2)cc1C(=O)N[C@@H]1[C@H]2CC[C@H](C2)[C@@H]1C(=O)NCc1cccc(C)c1 [Example 115] ... 220

A = COc1cc(-c2cc(C(=O)N[C@H]3[C@@H](C(=O)Nc4cccc(S(=O)(=O)C(F)(F)F)c4)[C@@H]4C=C[C@H]3C4)c(OC)cc2F)ccc1C(=O)O (racemic) [Example 226]
B = COc1cc(F)c(O[C@H]2CC[C@@H](C(N)=O)CC2)cc1C(=O)N[C@@H]1[C@H]2CC[C@H](C2)[C@@H]1C(=O)Nc1ccc(F)c(C(F)(F)F)c1 [Example 500]
C = COc1cc(F)c(OCCCCCC(=O)O)cc1C(=O)N[C@H]1[C@@H](C(=O)Nc2cccc(S(=O)(=O)C(F)(F)F)c2)[C@@H]2C=C[C@H]1C2 (racemic) [Example 455]
D = COc1cc(F)c(-c2cccc(C(=O)O)c2)cc1C(=O)N[C@@H]1CCC[C@@H]1C(=O)Nc1cccc(S(=O)(=O)C(F)(F)F)c1 [Example 317]
Task item: Put the items in sequence by EC50, from largest down. The response must list the labels following the requested ordering.
Reply: D, A, C, B
(D: 1200 nM, A: 300 nM, C: 160 nM, B: 64 nM)

---

- method_summary: Rat Hepatocyte Stability (Test E)
- Type: in vitro ADME
- particulars: rat, hepatocytes, geometric mean if run multiple times
recorded_endpoint: hepatocyte CLint (µL/min/1e6 cells)

COc1cc(F)c(-c2ccc(C(=O)O)cc2)cc1C(=O)N[C@H]1[C@@H](C(=O)Nc2cc(F)cc(C(F)(F)F)c2)[C@@H]2C=C[C@H]1C2 (racemic) ... 33
COc1cc(F)c(O[C@H]2CC[C@@H](C(=O)O)CC2)cc1C(=O)N[C@@H]1[C@H]2CC[C@H](C2)[C@@H]1C(=O)Nc1cccc(S(=O)(=O)C(F)(F)F)c1 ... 23
COc1cc(Br)c(O[C@H]2CC[C@@H](C(=O)O)CC2)cc1C(=O)N[C@@H]1[C@H]2CC[C@H](C2)[C@@H]1C(=O)Nc1cccc(S(=O)(=O)C(F)(F)F)c1 ... 30
COc1cc(C#N)c(O[C@H]2CC[C@@](C)(C(=O)O)CC2)cc1C(=O)N[C@@H]1[C@H]2CC[C@H](C2)[C@@H]1C(=O)NCC1(CC(C)C)CCC1 ... 29
COc1cc(C#N)c(O[C@H]2CC[C@@](C)(C(=O)O)CC2)cc1C(=O)N[C@@H]1[C@H]2CC[C@H](C2)[C@@H]1C(=O)NCC(C)(F)F ... 24

---

- method_summary: Solubility (Test F)
- Assay type: physicochemical
- particulars: arithmetic mean if run multiple times
recorded_endpoint: solubility (µM)

COc1cc(F)c(O[C@H]2CC[C@@H](C(=O)O)CC2)cc1C(=O)N[C@@H]1[C@H]2CC[C@H](C2)[C@@H]1C(=O)Nc1cccc(C(C)(C)C)c1 [Example 189] ... 83

P = COc1cc(F)c(-c2ccc(F)c(C(=O)O)c2)cc1C(=O)N[C@H]1[C@@H](C(=O)Nc2cccc(S(=O)(=O)C(F)(F)F)c2)[C@@H]2C=C[C@H]1C2 (racemic) [Example 231]
Q = COc1cc(F)c(O[C@H]2CC[C@@H](C(=O)O)CC2)cc1C(=O)N[C@@H]1[C@H]2CC[C@H](C2)[C@@H]1C(=O)Nc1cccc(S(=O)(=O)C(F)(F)F)c1 [Example 491]
R = COc1cc(F)c(O[C@H]2CC[C@@](C)(C(=O)O)CC2)cc1C(=O)N[C@@H]1[C@H]2CC[C@H](C2)[C@@H]1C(=O)Nc1ccc(F)c(S(F)(F)(F)(F)F)c1 [Example 353]
S = COc1cc(C)c(O[C@H]2CC[C@@H](C(=O)O)CC2)cc1C(=O)N[C@@H]1[C@H]2CC[C@H](C2)[C@@H]1C(=O)Nc1cccc(S(=O)(=O)C(F)(F)F)c1 [Example 465]
Task item: # ascending order, key=solubility In plain terms: list the labels in the order you were asked to.
Reply: P, R, S, Q
(P: 17 µM, R: 45 µM, S: 300 µM, Q: 550 µM)

---

- method_summary: Rat Hepatocyte Stability (Test E)
- Type: in vitro ADME
- particulars: rat, hepatocytes, geometric mean if run multiple times
recorded_endpoint: hepatocyte CLint (µL/min/1e6 cells)

These solved cases illustrate the format of a correct answer.
COc1cc(F)c(O[C@H]2CC[C@@](C)(C(=O)O)CC2)cc1C(=O)N[C@@H]1CCC[C@@H]1C(=O)N[C@@H](C)C(C)(C)C ... 13
COc1cc(F)c(-c2cccc(CCC(=O)O)c2)cc1C(=O)N[C@@H]1CCC[C@@H]1C(=O)Nc1cccc(S(=O)(=O)C(F)(F)F)c1 ... 29

1 = COc1cc(F)c(-c2ccc(C(N)=O)cc2)cc1C(=O)N[C@@H]1[C@H]2CC[C@H](C2)[C@@H]1C(=O)Nc1cccc(S(=O)(=O)C(F)(F)F)c1
2 = COc1cc(F)c(O[C@H]2CC[C@@](C)(C(=O)O)CC2)cc1C(=O)N[C@@H]1[C@H]2CC[C@H](C2)[C@@H]1C(=O)NCC1(C)CC1
Task item: Smaller hepatocyte CLint value? Options are 1 and 2 Answer by quoting the chosen item's label.
Reply: 1

---

- method_summary: Human Liver Microsomal Stability (Test C)
- Assay type: in vitro ADME
- particulars: human, liver microsomes
recorded_endpoint: microsomal CLint (µL/min/mg)

I = CCC(CC)[C@H](C)NC(=O)[C@H]1[C@@H]2CC[C@@H](C2)[C@H]1NC(=O)c1cc(O[C@H]2CC[C@@](C)(C(=O)O)CC2)c(F)cc1OC (single isomer, unassigned)
II = COc1cc(F)c(O[C@H]2CC[C@@H](C(=O)O)CC2)cc1C(=O)N[C@@H]1[C@H]2CC[C@H](C2)[C@@H]1C(=O)Nc1cccc(C(F)F)c1
III = COc1cc(F)c(-c2ccc(C[C@@H](N)C(=O)O)cc2)cc1C(=O)N[C@@H]1[C@H]2CC[C@H](C2)[C@@H]1C(=O)Nc1cccc(S(=O)(=O)C(F)(F)F)c1
IV = COc1cc(C#N)c(O[C@H]2CC[C@@](C)(C(=O)O)CC2)cc1C(=O)N[C@@H]1[C@H]2CC[C@H](C2)[C@@H]1C(=O)NCC1(OC)CCC1
Task item: Please put the 4 compounds above in a list ordered by falling microsomal CLint. Dear reader, please state the labels in the requested order.
Reply: I, II, III, IV
(I: 240 µL/min/mg, II: 32 µL/min/mg, III: 18 µL/min/mg, IV: 8 µL/min/mg)
